# study-system: T1, HIS-tagged human NKG2D (human, UniProt P26718 73-216, limits assumed)
# T1 construct: Captured on HIS1K biosensors; not shown: HIS tag
# T1 sequence (looked up): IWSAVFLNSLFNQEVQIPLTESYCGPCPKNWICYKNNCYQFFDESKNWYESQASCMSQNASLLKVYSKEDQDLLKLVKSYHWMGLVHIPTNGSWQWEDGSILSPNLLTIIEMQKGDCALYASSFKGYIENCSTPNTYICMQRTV
# assay-summary: Octet (BLI): His-tagged human NKG2D captured on HIS1K biosensors, dipped into 100 nM bivalent mAb
// reported koff for each item listed

{"binder": "XENP27596 (antibody, human IgG1, kappa, V domains shown, bivalent anti-NKG2D mAb, IgG1 with ablation variants; also called mAb D[NKG2D]_H1L1_IgG1_PVA_/S267K) VH: QVQLVQSGAEVKKPGASVKVSCKASGYTFTNYWMHWVRQAPGQGLEWMGEIDPSDIYTNYAQKFQGRVTMTRDTSTSTVYMELSSLRSEDTAVYYCARGIYDGYYVYGMDYWGQGTTVTVSS VL: YIQMTQSPSSLSASVGDRVTITCRSSQDISNYLNWYQQKPGKAPKLLIYYTSRLHSGVPSRFSGSGSGTDFTFTISSLQPEDIATYYCQQGKTLPRTFGGGTKVEIKR", "koff": "≤ 1e-07 s⁻¹"}
{"binder": "XENP27613 (antibody, human IgG1, kappa, V domains shown, humanized bivalent anti-NKG2D mAb, IgG1 with ablation variants; also called mAb A[NKG2D]_H2L1_IgG1_PVA_/S267K) VH: QVQLQESGPGLVKPSETLSLTCTVSGFSLTSYGVHWIRQPPGKGLEWIGVIWAGGSTNYNPSLKSRVTISKDNSKSQVSLKLSSVTAADTAVYYCARGGYEGAAWFGYWGQGTLVTVSS VL: DIQLTQSPSSLSASVGDRVTITCRASSSVSYMHWYQQKPGKSPKPLIYATSNLASGVPARFSGSGSGTDYTLTISSLQPEDFATYYCQQWNSNPLTFGAGTKVEIKR", "koff": "≤ 1e-07 s⁻¹"}
{"binder": "XENP27612 (antibody, human IgG1, kappa, V domains shown, humanized bivalent anti-NKG2D mAb, IgG1 with ablation variants; also called mAb A[NKG2D]_H1L2_IgG1_PVA_/S267K) VH: QVQLVQSGAEVKKPGASVKVSCKVSGFSLTSYGVHWIRQAPGQGLEWMGVIWAGGSTNYNSKFQGRVTMTKDNSKSTVYMELSSLRSEDTAVYYCARGGYEGAAWFGYWGQGTLVTVSS VL: DIQLTQSPATLSLSPGERATLSCRASSSVSYMHWYQQKPGQSPRPLIYATSNLASGVPARFSGSGSGTDYTLTISSLEPEDFAVYYCQQWNSNPLTFGAGTKVEIKR", "koff": "≤ 1e-07 s⁻¹"}

Next, consider the following binder.
Name the reported koff value associated with the binder XENP27611 (antibody, human IgG1, kappa, V domains shown, humanized bivalent anti-NKG2D mAb, IgG1 with ablation variants; also called mAb A[NKG2D]_H1L1_IgG1_PVA_/S267K) VH: QVQLVQSGAEVKKPGASVKVSCKVSGFSLTSYGVHWIRQAPGQGLEWMGVIWAGGSTNYNSKFQGRVTMTKDNSKSTVYMELSSLRSEDTAVYYCARGGYEGAAWFGYWGQGTLVTVSS VL: DIQLTQSPSSLSASVGDRVTITCRASSSVSYMHWYQQKPGKSPKPLIYATSNLASGVPARFSGSGSGTDYTLTISSLQPEDFATYYCQQWNSNPLTFGAGTKVEIKR
≤ 1e-07 s⁻¹
